Listed here: items and their measured DSF huSTING (HAQ) ΔTm (° C.).
# assayedSystem: human STING (HAQ) (Homo sapiens, UniProt Q86WV6, G230A/H232R/R293Q)
# Sequence (Q86WV6 whole entry G230A/H232R/R293Q, looked up): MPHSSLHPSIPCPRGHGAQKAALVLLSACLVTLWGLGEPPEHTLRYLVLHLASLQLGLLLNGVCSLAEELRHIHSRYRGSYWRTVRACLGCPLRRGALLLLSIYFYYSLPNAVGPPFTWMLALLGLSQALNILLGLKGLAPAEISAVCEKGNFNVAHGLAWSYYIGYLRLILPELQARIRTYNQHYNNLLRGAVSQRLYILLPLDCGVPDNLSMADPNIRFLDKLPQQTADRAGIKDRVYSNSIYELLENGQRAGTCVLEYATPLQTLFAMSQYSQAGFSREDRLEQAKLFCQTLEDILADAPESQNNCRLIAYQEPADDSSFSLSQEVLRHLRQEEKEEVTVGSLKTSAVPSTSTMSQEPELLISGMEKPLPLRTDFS
# testMethodNotes: biochemical
# Format: binding
# assaySetup: 1 μM protein, compound at 100 μM

NC(=O)c1ccc(OCc2c(C(=O)O)sc3ccccc23)cc1; 3.33 °C
NC(=O)c1ccc(OCc2c(C(=O)O)sc3ccc(F)c(F)c23)cc1; 10.12 °C
NC(=O)c1ccc(OCc2c(C(=O)O)sc3cc(Cl)cc(F)c23)cc1; 5.83 °C
N#Cc1cccc2sc(C(=O)O)c(COc3ccc(C(N)=O)cc3)c12; 8.07 °C
COc1cccc2sc(C(=O)O)c(COc3ccc(C(N)=O)cc3)c12; 10.07 °C
NC(=O)c1cc(F)c(OCc2c(C(=O)O)sc3cccc(Cl)c23)c(Br)c1; 12.18 °C

We next turn to a different molecule, shown below.
The molecule listed as COc1cc(C(N)=O)cc(C)c1OCc1c(C(=O)O)sc2cccc(Cl)c12 has a reported DSF huSTING (HAQ) ΔTm (° C.) of 1.79 °C
